- Test system: Hs578T complex spheroid growth, percent test/control
- Procedure text: Anticancer human tumor Hs578T cell line growth inhibition [AhR];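 further: luminescent viability signal as a proxy for spheroid growth; spheroids exposed to agents for one week after three days of growth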
- Assay context: second compound 0.316 µM; first compound 0.003 µM; active compounds read low
- From the text: Multicellular complex tumor spheroid response to aryl hydrocarbon receptor antagonists in combination with a variety of drugs and investigational agents in selected tumor cell lines […] Compounds. […] If the clinical Cmax for an agent had not been determined, the highest concentration tested was 10 microM (Table 1). […]
Reported viability, T/C values for a set of molecules

{"Molecule": "CCc1c2c(nc3ccc(O)cc13)-c1cc3c(c(=O)n1C2)COC(=O)[C@]3(O)CC + CC(CO)NC(=O)c1cc(-c2ccc(Cl)cc2)nn(-c2cnn(C)c2)c1=O", "viability, T/C / %": 88}
{"Molecule": "CC(C)CC(NC(=O)C(Cc1ccccc1)NC(=O)c1cnccn1)B(O)O (centres undefined) + Cc1ccccc1N=Nc1ccc(NC(=O)c2ccnn2C)c(C)c1", "viability, T/C / %": 78.1}
{"Molecule": "CC(C)CC(NC(=O)C(Cc1ccccc1)NC(=O)c1cnccn1)B(O)O (centres undefined) + CC(CO)NC(=O)c1cc(-c2ccc(Cl)cc2)nn(-c2cnn(C)c2)c1=O", "viability, T/C / %": 72.6}
{"Molecule": "CC(C)CC(NC(=O)C(Cc1ccccc1)NC(=O)c1cnccn1)B(O)O (centres undefined) + Cc1cncc(-c2nc(NCCc3c[nH]c4ccccc34)c3ncn(C(C)C)c3n2)c1", "viability, T/C / %": 101}
